Task for the reader: assign each of the following molecules its reported EC50.
# experimental-target: GTPase HRas (Homo sapiens) (UniProt P01112)
# Sequence (P01112 whole entry, looked up): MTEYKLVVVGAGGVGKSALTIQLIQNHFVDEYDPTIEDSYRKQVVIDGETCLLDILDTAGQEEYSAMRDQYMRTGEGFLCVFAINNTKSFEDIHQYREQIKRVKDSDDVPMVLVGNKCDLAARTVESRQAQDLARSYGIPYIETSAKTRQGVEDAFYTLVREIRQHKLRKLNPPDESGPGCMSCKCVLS
# procedure-text: activated H-Ras mutant GTP-binding inhibitors, SAR follow-up, biochemical, multiplex bead flow cytometry, round 2 (AID 588628)
# cond: bead-based flow cytometry, Bodipy-FL-GTP binding, EDTA

Worked set:
>  <molecule>
CC1(C)Cc2c(sc(NC(=S)NC(=O)c3cccc(F)c3)c2C(=O)O)CO1

>  <EC50>
535 nM

$$$$
>  <molecule>
CC1Cc2c(sc(NC(=S)NC(=O)c3ccccc3)c2C(=O)O)CO1 (stereo not given)

>  <EC50>
217 nM

$$$$
>  <molecule>
CC1(C)Cc2c(sc(NC(=S)NC(=O)c3ccc(Br)cc3)c2C(=O)O)CO1

>  <EC50>
564 nM

$$$$
>  <molecule>
CC1(C)Cc2c(sc(NC(=S)NC(=O)c3cccs3)c2C(=O)O)CO1

>  <EC50>
24 nM

$$$$

Query: Entry CC(C)(C)C1Cc2c(sc(NC(=S)NC(=O)c3ccccc3)c2C(=O)O)CO1 (stereo not given) : reported EC50 = ?
Reply: 125 nM
